- SYSTEM UNDER TEST: Bifunctional epoxide hydrolase 2 (Rattus norvegicus)
- Sequence (P80299 whole entry): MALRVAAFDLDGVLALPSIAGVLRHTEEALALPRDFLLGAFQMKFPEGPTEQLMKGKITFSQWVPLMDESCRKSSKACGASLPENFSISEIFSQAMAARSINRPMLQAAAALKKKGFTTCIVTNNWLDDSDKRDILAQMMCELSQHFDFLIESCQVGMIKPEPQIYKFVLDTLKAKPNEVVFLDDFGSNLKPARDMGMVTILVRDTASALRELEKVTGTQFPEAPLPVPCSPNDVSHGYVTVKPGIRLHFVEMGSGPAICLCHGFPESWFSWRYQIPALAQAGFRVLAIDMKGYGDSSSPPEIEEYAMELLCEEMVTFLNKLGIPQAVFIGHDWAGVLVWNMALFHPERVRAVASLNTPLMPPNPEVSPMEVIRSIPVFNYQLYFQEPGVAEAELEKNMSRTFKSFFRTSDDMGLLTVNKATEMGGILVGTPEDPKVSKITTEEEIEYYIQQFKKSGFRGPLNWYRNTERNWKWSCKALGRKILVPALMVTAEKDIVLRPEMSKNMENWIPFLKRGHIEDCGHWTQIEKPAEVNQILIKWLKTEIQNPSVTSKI
- ASSAY DETAILS: Inhibition of recombinant rat soluble epoxide hydrolase assessed as increase in fluorescence intensity by fluorescence plate reader
pIC50: −log10 of the molar value.
MEASUREMENT NAME: pIC50

[[record]]
compound = "O=C(N[C@@H]1[C@@H](c2ccccc2)[C@H]1c1ccccc1)N1CCC[C@@H](NS(=O)(=O)c2ccc(F)cc2)C1 (mixture of isomers)"
system_under_test = "Bifunctional epoxide hydrolase 2 (Rattus norvegicus)"
recorded_value = 9.70

[[record]]
compound = "CN1CCN(C(=O)N[C@@H]2[C@@H](c3ccccc3)[C@H]2c2ccccc2)CC1"
system_under_test = "Bifunctional epoxide hydrolase 2 (Rattus norvegicus)"
recorded_value = 7.56

[[record]]
compound = "O=C(N[C@@H]1[C@@H](c2ccccc2)[C@H]1c1ccccc1)N1CCCCC1"
system_under_test = "Bifunctional epoxide hydrolase 2 (Rattus norvegicus)"
recorded_value = 9.70

